Tested on: Mycobacterium tuberculosis
Test: Antitubercular activity against Mycobacterium tuberculosis H37Rv by microplate alamar blue assay
Type: functional
In this section we review reported MIC values for a set of molecules.
Answer format: numeric, µM implied, no suffix.

Reference set (3 entries):
COc1ccc(-c2cc(-c3cc(OC)c(OC)c(OC)c3)nc(-c3cccnc3)n2)cc1 :: 100
COc1ccc(-c2cc(-c3cc(OC)c(OC)c(OC)c3)nc(N)n2)cc1 :: 25
COc1ccc(C2CC(c3ccc4c(c3)OCO4)=NN2C(C)=O)cc1 (centres undefined) :: 100

Please state recorded MIC (tested on Mycobacterium tuberculosis) of COc1ccc(-c2cc(-c3cc(OC)c(OC)c(OC)c3)nc(-c3ccccn3)n2)cc1
25

Try COc1cc(-c2cc(-c3ccc(Br)cc3)nc(N)n2)cc(OC)c1OC next.
50

How about this molecule: COc1cc(C2CC(c3ccc(Cl)cc3)=NN2C(C)=O)cc(OC)c1OC (centres undefined)
12.5

Next up: COc1cc(-c2cc(-c3ccc(Cl)cc3)nc(N)n2)cc(OC)c1OC
50
